MEASUREMENT_TARGET: Human PKCδ C1B ZiF domain (Homo sapiens, UniProt Q05655)
Sequence (Q05655 231-280): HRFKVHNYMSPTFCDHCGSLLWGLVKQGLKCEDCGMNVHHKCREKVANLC
ASSAY_SUMMARY: Retinol binding by trp fluorescence quench, Gst fusion protein
RECORDED_METRIC: Kd (µM)
Provide the reading as a plain figure in µM.

Any idea what its Kd is? The molecule is CC1=C(/C=C/C(C)=C/C=C/C(C)=C/CO)C(C)(C)CCC1 [retinol, all-trans retinol]
0.0673

----------
MEASUREMENT_TARGET: Human PKCμ C1A ZiF domain (Homo sapiens, UniProt Q15139)
Sequence (Q15139 146-196 limits assumed): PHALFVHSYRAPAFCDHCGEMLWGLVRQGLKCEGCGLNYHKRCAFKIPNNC
ASSAY_SUMMARY: Retinol binding by trp fluorescence quench, Gst fusion protein
RECORDED_METRIC: Kd

Quick check: Kd of CC1=C(/C=C/C(C)=C/C=C/C(C)=C/CO)C(C)(C)CCC1 [retinol, all-trans retinol] ?
0.0181 µM

----------
MEASUREMENT_TARGET: Drosophila PKC C1B ZiF domain (Drosophila melanogaster, UniProt P05130)
ASSAY_SUMMARY: Retinol binding by trp fluorescence quench, Gst fusion protein
pKd: −log10 of the molar value.
RECORDED_METRIC: pKd

So what does the record say about pKd for CC1=C(/C=C/C(C)=C/C=C/C(C)=C/CO)C(C)(C)CCC1 [retinol, all-trans retinol] ?
< 6.30

----------
MEASUREMENT_TARGET: Gst-Raf ZiF (human cRaf-1 ZiF domain) (Homo sapiens, UniProt P04049)
Sequence (P04049 136-195): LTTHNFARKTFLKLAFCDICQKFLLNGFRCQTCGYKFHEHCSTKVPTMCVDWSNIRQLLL
RECORDED_METRIC: pKd
When answering, recall that pKd equals minus log10 of the concentration in mol/L, and write that number alone.

Query pKd on Gst-Raf ZiF (human cRaf-1 ZiF domain) (Homo sapiens, UniProt P04049) for CC1=C(/C=C/C(C)=C/C=C/C(C)=C/CO)C(C)(C)CCC1 [retinol, all-trans retinol]
7.59

----------
MEASUREMENT_TARGET: S. cerevisiae PKC C1A ZiF domain (Saccharomyces cerevisiae)
Sequence (P24583 414-461 limits assumed): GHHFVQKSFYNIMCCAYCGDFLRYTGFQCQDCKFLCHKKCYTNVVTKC
ASSAY_SUMMARY: Retinol binding by trp fluorescence quench, Gst fusion protein
RECORDED_METRIC: pKd
Conceptually, pKd converts a concentration in mol/L into minus its log10.

Entry CC1=C(/C=C/C(C)=C/C=C/C(C)=C/CO)C(C)(C)CCC1 [retinol, all-trans retinol] : reported pKd = ?
7.75

----------
MEASUREMENT_TARGET: S. cerevisiae PKC C1B ZiF domain (Saccharomyces cerevisiae, UniProt P24583)
ASSAY_SUMMARY: Retinol binding by trp fluorescence quench, Gst fusion protein
RECORDED_METRIC: Kd

Which Kd value is on record for CC1=C(/C=C/C(C)=C/C=C/C(C)=C/CO)C(C)(C)CCC1 [retinol, all-trans retinol] ?
> 500 nM

----------
MEASUREMENT_TARGET: Human PKCμ C1B ZiF domain (Homo sapiens, UniProt Q15139)
Sequence (Q15139 270-320 limits assumed): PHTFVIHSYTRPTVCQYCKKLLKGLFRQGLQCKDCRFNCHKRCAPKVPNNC
ASSAY_SUMMARY: Retinol binding by trp fluorescence quench, Gst fusion protein
RECORDED_METRIC: Kd (nM)
Please give a number only; it is taken to be in nM.

Look up Kd for this compound: CC1=C(/C=C/C(C)=C/C=C/C(C)=C/CO)C(C)(C)CCC1 [retinol, all-trans retinol]
17.3

----------
MEASUREMENT_TARGET: Human Vav C1 ZiF domain (Homo sapiens, UniProt P15498)
Sequence (P15498 with tags, fused parts or gaps): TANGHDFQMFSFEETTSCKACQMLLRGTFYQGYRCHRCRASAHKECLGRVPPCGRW
ASSAY_SUMMARY: Retinol binding by trp fluorescence quench, Gst fusion protein
RECORDED_METRIC: Kd

Short answer please: Kd, Human Vav C1 ZiF domain (Homo sapiens, UniProt P15498), entry CC1=C(/C=C/C(C)=C/C=C/C(C)=C/CO)C(C)(C)CCC1 [retinol, all-trans retinol]
> 500 nM

----------
MEASUREMENT_TARGET: Drosophila PKC C1A ZiF domain (Drosophila melanogaster, UniProt P05130)
ASSAY_SUMMARY: Retinol binding by trp fluorescence quench, Gst fusion protein
RECORDED_METRIC: Kd (nM)
Provide only the numeric value, understood in nM.

Entry CC1=C(/C=C/C(C)=C/C=C/C(C)=C/CO)C(C)(C)CCC1 [retinol, all-trans retinol] has what Kd?
18.5

----------
MEASUREMENT_TARGET: Human PKCδ C1A ZiF domain (Homo sapiens)
Sequence (Q05655 159-209): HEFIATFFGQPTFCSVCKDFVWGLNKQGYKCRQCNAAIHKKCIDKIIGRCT
ASSAY_SUMMARY: Retinol binding by trp fluorescence quench, Gst fusion protein
RECORDED_METRIC: Kd (nM)
Give the value, in units of nM, as a plain number.

What Kd appears in the records for this molecule with Human PKCδ C1A ZiF domain (Homo sapiens)? CC1=C(/C=C/C(C)=C/C=C/C(C)=C/CO)C(C)(C)CCC1 [retinol, all-trans retinol]
95.2
